Entry source: patent US20250376535A1

- system name: T1, recombinant human OX40-Fc (human, UniProt P43489 29-214)
- T1 construct: also called rh-OX40-Fc; human OX40 hFC (R & D systems)
- T1 sequence: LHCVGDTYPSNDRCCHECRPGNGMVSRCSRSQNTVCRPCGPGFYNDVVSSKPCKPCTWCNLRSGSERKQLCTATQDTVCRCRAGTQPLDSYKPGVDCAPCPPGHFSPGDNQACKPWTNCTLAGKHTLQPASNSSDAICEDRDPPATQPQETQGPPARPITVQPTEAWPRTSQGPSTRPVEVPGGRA
- experiment: ELISA, OX40-Fc coated, VHH at 1000 nM
readout name: OD450
Could you keep your reply to the number by itself?

[
  {
    "binder": "pgXX88-16 (VHH, not shown: small tags and cut ends) VHH: QVQLVESGGGLVQAGESLNLSCSASGSIRNNAVAWFRQGPGNQRLRVAAITNTGTTDYADSVQGRFSIARDNAENTVTLQMNSLKPEDTAIYYCKIYTLPVPISSHDDTWGQGTQVTVSS",
    "OD450": 1.61
  },
  {
    "binder": "pgXX88-2 (VHH, not shown: small tags and cut ends) VHH: EVQLVESGGGLVQPGGSLRLSCAASGFAFGDIPMMWVRQAPGKGREWVSSISADSATQSYADSVQDRFTISRDNAKNTLYLEMHILKPEDTAVYYCATTDRPPPGQGTQVTVSS",
    "OD450": 1.67
  }
]

## Task Entry pgXX88-84 (VHH, not shown: small tags and cut ends) VHH: EVQLVESGGRLVQAGDSLKLSCTASGRTFSDYVMGWFRQVPGEGRLMVAVITPAGDTTEYADAVKGRFSISKDSAKRTVNLQMNNLKVDDTAVYYCAAGPSWIGMQFGTAEYWGQGTQVTVSS has what OD450?
## Result 0.34

## Task Entry pgXX88-5 (VHH, not shown: small tags and cut ends) VHH: QVQLVESGGGLVQAGGSLRLSCAASGGTFSTYAMGWFRQAPGKEPQFVARITWSGYTLYTEPVQGRFAISRDNAKNTVYLQMNSLKPEDTAEYFCAADSSEFRDIPNRDSRANYRYWGQGTQVTVSS has what OD450?
## Result 1.09
